tested on: AP-1; assay: Cellular transrepression assay (AP-1 luciferase reporter in A549 cells, PMA activated); assay type: cell-based; details: 7 h, 10 ng/ml PMA, read-out: AP-1 (EC50, nM) (measured in cellular transrepression assay)
reported_endpoint: EC50 (nM)
One number for each entry, in nM.

Use the examples below as a reference point.
Query the reported EC50 for AP-1; item: Cc1nsc(NC(=O)C(C)(C)C2c3ccc(Cl)nc3Oc3nc(-c4ccc(C(=O)N(C)C)cc4)ccc32)n1 (stereo not shown) [Example 57]
68.5

# repeat for Cc1nnc(NC(=O)C(C)(C)C2c3ccc(Cl)nc3Oc3nc(-c4ccc(C(=O)N5CCOCC5)cc4)ccc32)s1 (stereo not shown) [Example 61]
47.5

What do you have for CCN(C)C(=O)c1ccc(-c2ccc3c(n2)Oc2nc(C)ccc2[C@@H]3C(C)(C)C(=O)Nc2nnc(C(=O)NCC(F)(F)F)s2)cc1 [Example 87] ?
574

Try Cc1ccc2c(n1)Oc1nc(-c3ccc(C(=O)N(C)C)cc3)ccc1[C@H]2C(C)(C)C(=O)Nc1nnn(C)n1 [Example 94] next.
790

And for Cc1ccc2c(n1)Oc1nc(-c3ccc(C(=O)N4CCCC4)cc3)ccc1[C@H]2C(C)(C)C(=O)Nc1nncs1 [Example 31] ?
376

Below is a list of molecules. For each, state its recorded EC50.
1. CCC(=O)c1ccc(-c2ccc3c(n2)Oc2nc(C)ccc2[C@@H]3C(C)(C)C(=O)Nc2nncs2)cc1 [Example 76]
2. CCNC(=O)c1nnc(NC(=O)C(C)(C)[C@H]2c3ccc(C)nc3Oc3nc(-c4ccc(C(=O)N(C)CC)cc4)ccc32)s1 [Example 48]

1. 119
2. 341

* * *

Biological target: human full-length glucocorticoid receptor (Homo sapiens)
Construct: recombinantly expressed human full-length glucocorticoid receptor; purchased PanVera Co., Madison, Wis; P2816
Sequence (P04150 1-777): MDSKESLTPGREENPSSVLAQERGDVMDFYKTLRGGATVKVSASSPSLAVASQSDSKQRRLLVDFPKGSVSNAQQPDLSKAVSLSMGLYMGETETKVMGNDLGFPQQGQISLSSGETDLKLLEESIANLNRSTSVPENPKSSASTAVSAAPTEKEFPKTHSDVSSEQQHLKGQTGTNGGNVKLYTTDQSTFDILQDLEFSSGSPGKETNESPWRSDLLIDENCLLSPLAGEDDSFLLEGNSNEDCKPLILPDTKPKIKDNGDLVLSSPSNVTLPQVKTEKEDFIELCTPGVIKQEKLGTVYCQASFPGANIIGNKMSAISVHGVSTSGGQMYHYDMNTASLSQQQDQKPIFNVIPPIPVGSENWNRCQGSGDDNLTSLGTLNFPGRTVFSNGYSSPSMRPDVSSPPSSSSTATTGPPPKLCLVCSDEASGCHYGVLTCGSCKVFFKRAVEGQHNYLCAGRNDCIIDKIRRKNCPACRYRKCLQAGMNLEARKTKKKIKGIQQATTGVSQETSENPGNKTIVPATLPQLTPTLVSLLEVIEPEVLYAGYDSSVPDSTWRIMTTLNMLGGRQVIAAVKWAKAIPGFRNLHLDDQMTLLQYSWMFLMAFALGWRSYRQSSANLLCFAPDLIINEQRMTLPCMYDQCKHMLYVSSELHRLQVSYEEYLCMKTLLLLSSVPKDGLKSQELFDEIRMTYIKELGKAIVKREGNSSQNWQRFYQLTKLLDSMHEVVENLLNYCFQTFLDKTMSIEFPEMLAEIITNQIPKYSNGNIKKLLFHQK
Assay: GR binding Assay II (fluorescence polarization competitor assay)
Conditions: given where AP-1 EC50 is greater than 1 uM and/or maximal inhibition is less than 20%; read-out: GR (Ki, nM) (measured in GR binding Assay II)
reported_endpoint: Ki (nM)
Answers are plain numbers, in nM.

// below: answered compounds
What is its Ki for human full-length glucocorticoid receptor (Homo sapiens)? Entry: Cc1ccc2c(n1)Oc1nc(-c3ccc(OC(C)(C)C)cc3)ccc1[C@H]2C(C)(C)C(=O)Nc1nncs1
40.5

Another compound to check: CCN(C)C(=O)c1ccc(-c2ccc3c(n2)Oc2c(ccc[n+]2[O-])C3C(C)(C)C(=O)Nc2nncs2)cc1 (stereo not shown)
1150

Try this compound too: Cc1ccc2c(n1)Oc1nc(-c3ccc(OC(C)C)nc3)ccc1[C@H]2C(C)(C)C(=O)Nc1nncs1
27.6

---
Query Ki on human full-length glucocorticoid receptor (Homo sapiens) for CC(C)(C(=O)Nc1nnc(C(=O)NC2CC2)s1)C1c2cccnc2Oc2nc(-c3ccc(C(=O)N4CCOCC4)cc3)ccc21 (stereo not shown)
59
